Provenance of the data: ChEMBL document CHEMBL4428091

method-description: Dissociation constant, pKa of the compound
Format: physicochemical
measured-attribute: pKa
Lab note: record just the number, no unit beside it.

Req: # pKa lookup, item COc1ccc2c(c1)[C@]1(C[C@H]1c1ccc3c(-c4ccc(C5(F)CCN(C)CC5)cc4)n[nH]c3c1)C(=O)N2
Resp: 7.7

###

Give measured half-life for each item. Keep answers brief.
method-description: Half life in rat at 1 mg/kg, iv
Assay type: ADME, organism-based
measurement-parameters: in vivo
Answer in h, number only, no unit symbol.

Req: # half-life lookup, item COc1ccc2c(c1)C(=Cc1ccc3c(-c4ccc(N5CCN(C)CC5)nc4)n[nH]c3c1)C(=O)N2
Resp: 1.3

Req: # half-life lookup, item CN1CCN(c2ccc(/C=C/c3n[nH]c4cc(/C=C5/C(=O)Nc6ccccc65)ccc34)cn2)CC1
Resp: 5.1

Req: # half-life lookup, item COc1ccc2c(c1)[C@]1(C[C@H]1c1ccc3c(-c4ccc(N5CCN(C)CC5)cc4)n[nH]c3c1)C(=O)N2
Resp: 1.3

Req: # half-life lookup, item COc1ccc2c(c1)[C@]1(C[C@H]1c1ccc3c(/C=C/c4ccc(N5CCN(C)CC5)nc4)n[nH]c3c1)C(=O)N2
Resp: 2.4

###

method-description: Half life in human microsomes
Type: ADME, Microsome
Rule: measured half-life below 20 min gets MET; anything equal to or greater than 20 min gets NOT MET.

Req: Does this compound meet the criterion half-life < 20 min? CN1CCN(c2ccc(/C=C/c3n[nH]c4cc(/C=C5/C(=O)Nc6ccccc65)ccc34)cn2)CC1
Resp: NOT MET

Req: Does this compound meet the criterion half-life < 20 min? COc1ccc2c(c1)[C@]1(C[C@H]1c1ccc3c(-c4ccc(N5CCN(CCO)CC5)cc4)n[nH]c3c1)C(=O)N2
Resp: NOT MET

Req: Does this compound meet the criterion half-life < 20 min? COc1ccc2c(c1)[C@]1(C[C@H]1c1ccc3c(-c4ccc(N5CCN(C)CC5)cc4)n[nH]c3c1)C(=O)N2
Resp: MET

Req: Does this compound meet the criterion half-life < 20 min? CCN1CCN(c2ccc(-c3n[nH]c4cc([C@@H]5C[C@@]56C(=O)Nc5ccc(OC)cc56)ccc34)cc2)CC1
Resp: NOT MET

Req: Does this compound meet the criterion half-life < 20 min? COc1ccc2c(c1)[C@]1(C[C@H]1c1ccc3c(-c4ccc(N5CCNCC5)cc4)n[nH]c3c1)C(=O)N2
Resp: NOT MET

Req: Does this compound meet the criterion half-life < 20 min? COc1ccc2c(c1)[C@]1(C[C@H]1c1ccc3c(/C=C/c4ccc(N5CCN(C)CC5)nc4)n[nH]c3c1)C(=O)N2
Resp: MET

Req: Does this compound meet the criterion half-life < 20 min? COc1ccc2c(c1)C(=Cc1ccc3c(-c4ccc(N5CCN(C)CC5)nc4)n[nH]c3c1)C(=O)N2
Resp: MET

Req: Does this compound meet the criterion half-life < 20 min? COc1ccc2c(c1)[C@]1(C[C@H]1c1ccc3c(-c4ccc(N5C[C@@H](C)N[C@@H](C)C5)cc4)n[nH]c3c1)C(=O)N2
Resp: NOT MET

###

measured-attribute: IC50 (nM)
Answer in nM, number only, no unit symbol.

Req: Look up IC50 with Receptor-type tyrosine-protein kinase FLT3 (Homo sapiens) for this compound: COc1ccc2c(c1)[C@]1(C[C@H]1c1ccc3c(-c4ccc(N5CCC(O)CC5)nc4)n[nH]c3c1)C(=O)N2 (racemic)
Sequence (P36888 whole entry): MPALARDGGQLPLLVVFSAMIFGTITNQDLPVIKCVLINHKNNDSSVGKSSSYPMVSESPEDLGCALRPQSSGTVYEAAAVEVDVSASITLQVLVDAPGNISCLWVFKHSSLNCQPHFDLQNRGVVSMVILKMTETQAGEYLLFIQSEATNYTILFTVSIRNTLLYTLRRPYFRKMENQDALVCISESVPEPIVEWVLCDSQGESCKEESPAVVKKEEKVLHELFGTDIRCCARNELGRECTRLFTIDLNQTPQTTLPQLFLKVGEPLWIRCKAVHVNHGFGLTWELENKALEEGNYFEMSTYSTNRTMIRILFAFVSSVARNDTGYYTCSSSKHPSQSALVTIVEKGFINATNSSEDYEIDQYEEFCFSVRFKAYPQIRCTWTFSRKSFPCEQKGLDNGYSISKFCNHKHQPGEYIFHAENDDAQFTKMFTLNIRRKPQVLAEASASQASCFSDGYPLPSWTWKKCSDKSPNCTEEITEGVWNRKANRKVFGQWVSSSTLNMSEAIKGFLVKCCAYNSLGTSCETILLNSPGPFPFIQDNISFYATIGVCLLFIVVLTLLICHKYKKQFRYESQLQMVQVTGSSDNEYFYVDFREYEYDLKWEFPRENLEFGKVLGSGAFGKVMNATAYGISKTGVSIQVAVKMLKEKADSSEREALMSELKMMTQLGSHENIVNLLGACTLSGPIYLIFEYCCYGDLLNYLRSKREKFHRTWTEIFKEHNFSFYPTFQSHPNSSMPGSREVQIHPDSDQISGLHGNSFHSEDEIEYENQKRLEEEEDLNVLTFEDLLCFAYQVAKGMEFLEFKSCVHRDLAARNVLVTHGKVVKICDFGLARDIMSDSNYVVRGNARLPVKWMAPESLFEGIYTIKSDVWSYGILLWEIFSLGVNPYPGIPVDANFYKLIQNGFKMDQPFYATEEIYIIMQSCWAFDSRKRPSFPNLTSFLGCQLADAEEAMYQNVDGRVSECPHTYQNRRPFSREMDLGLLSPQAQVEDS
Resp: 240

Req: Look up IC50 with Receptor-type tyrosine-protein kinase FLT3 (Homo sapiens) for this compound: COc1ccc2c(c1)[C@]1(C[C@H]1c1ccc3c(-c4ccc(C5(F)CCN(C)CC5)cc4)n[nH]c3c1)C(=O)N2
Resp: 200

Req: Look up IC50 with Receptor-type tyrosine-protein kinase FLT3 (Homo sapiens) for this compound: O=C1Nc2ccccc2C1=Cc1ccc2c(-c3ccncc3)n[nH]c2c1
Resp: 120

Req: Look up IC50 with Receptor-type tyrosine-protein kinase FLT3 (Homo sapiens) for this compound: O=C1Nc2ccccc2/C1=C\c1ccc2c(-c3nccs3)n[nH]c2c1
Resp: 72

###

method-description: Oral bioavailability in rat at 5 mg/kg
Format: ADME, organism-based
measurement-parameters: in vivo
bioavailability of 10% or higher: Met. Under 10%: Not met.

Req: Dear colleague, could you confirm whether COc1ccc2c(c1)[C@]1(C[C@H]1c1ccc3c(/C=C/c4ccc(N5CCN(C)CC5)nc4)n[nH]c3c1)C(=O)N2 has bioavailability at or above 10%?
Resp: Met

Req: Dear colleague, could you confirm whether COc1ccc2c(c1)C(=Cc1ccc3c(-c4ccc(N5CCN(C)CC5)nc4)n[nH]c3c1)C(=O)N2 has bioavailability at or above 10%?
Resp: Not met

Req: Dear colleague, could you confirm whether CCN1CCN(c2ccc(-c3n[nH]c4cc([C@@H]5C[C@@]56C(=O)Nc5ccc(OC)cc56)ccc34)cc2)CC1 has bioavailability at or above 10%?
Resp: Met

Req: Dear colleague, could you confirm whether COc1ccc2c(c1)[C@]1(C[C@H]1c1ccc3c(-c4ccc(N5CCN(C)CC5)cc4)n[nH]c3c1)C(=O)N2 has bioavailability at or above 10%?
Resp: Met

Req: Dear colleague, could you confirm whether COc1ccc2c(c1)[C@]1(C[C@H]1c1ccc3c(-c4ccc(N5CCN(CCO)CC5)cc4)n[nH]c3c1)C(=O)N2 has bioavailability at or above 10%?
Resp: Met

Req: Dear colleague, could you confirm whether CN1CCN(c2ccc(/C=C/c3n[nH]c4cc(/C=C5/C(=O)Nc6ccccc65)ccc34)cn2)CC1 has bioavailability at or above 10%?
Resp: Not met

###

method-description: Lipophilicity, log D of the compound at pH 7.4
Type: physicochemical
measurement-parameters: buffer
Give measured logD for each item. Keep answers brief.
Lab note: record just the number, no unit beside it.

Req: # logD lookup, item COc1ccc2c(c1)[C@]1(C[C@H]1c1ccc3c(-c4ccc(N5C[C@@H](C)N[C@@H](C)C5)cc4)n[nH]c3c1)C(=O)N2
Resp: 3.4

Req: # logD lookup, item CCN1CCN(c2ccc(-c3n[nH]c4cc([C@@H]5C[C@@]56C(=O)Nc5ccc(OC)cc56)ccc34)cc2)CC1
Resp: 4.8

Req: # logD lookup, item COc1ccc2c(c1)[C@]1(C[C@H]1c1ccc3c(-c4ccc(N5CCN(C)CC5)nc4)n[nH]c3c1)C(=O)N2
Resp: 3.3

Req: # logD lookup, item COc1ccc2c(c1)[C@]1(C[C@H]1c1ccc3c(-c4ccc(N5CCN(C)CC5)cc4)n[nH]c3c1)C(=O)N2
Resp: 4

Req: # logD lookup, item COc1ccc2c(c1)[C@]1(C[C@H]1c1ccc3c(-c4ccc(N5CCNCC5)cc4)n[nH]c3c1)C(=O)N2
Resp: 2.6

Req: # logD lookup, item COc1ccc2c(c1)[C@]1(C[C@H]1c1ccc3c(-c4ccc(C5(F)CCN(C)CC5)cc4)n[nH]c3c1)C(=O)N2
Resp: 4

Req: # logD lookup, item COc1ccc2c(c1)[C@]1(C[C@H]1c1ccc3c(/C=C/c4ccc(N5CCN(C)CC5)nc4)n[nH]c3c1)C(=O)N2
Resp: 4.2

###

System: HCC1954
method-description: Growth inhibition of human HCC1954
Format: functional
Give measured GI50 for each item. Keep answers brief.
Answer in µM, number only, no unit symbol.

Req: # GI50 lookup, item CCN1CCN(c2ccc(-c3n[nH]c4cc([C@@H]5C[C@@]56C(=O)Nc5ccc(OC)cc56)ccc34)cc2)CC1
Resp: 0.24

Req: # GI50 lookup, item COc1ccc2c(c1)[C@]1(C[C@H]1c1ccc3c(-c4ccc(N5C[C@@H](C)N[C@@H](C)C5)cc4)n[nH]c3c1)C(=O)N2
Resp: 8.8

Req: # GI50 lookup, item COc1ccc2c(c1)[C@]1(C[C@H]1c1ccc3c(-c4ccc(N5CCNCC5)cc4)n[nH]c3c1)C(=O)N2
Resp: 3.6

Req: # GI50 lookup, item COc1ccc2c(c1)[C@]1(C[C@H]1c1ccc3c(-c4ccc(C5(F)CCN(C)CC5)cc4)n[nH]c3c1)C(=O)N2
Resp: 1.42

Req: # GI50 lookup, item COc1ccc2c(c1)C(=Cc1ccc3c(-c4ccc(N5CCN(C)CC5)nc4)n[nH]c3c1)C(=O)N2
Resp: 5.9

Req: # GI50 lookup, item COc1ccc2c(c1)[C@]1(C[C@H]1c1ccc3c(-c4ccc(N5CCN(CCO)CC5)cc4)n[nH]c3c1)C(=O)N2
Resp: 3

Req: # GI50 lookup, item COc1ccc2c(c1)[C@]1(C[C@H]1c1ccc3c(-c4ccc(N5CCN(C)CC5)cc4)n[nH]c3c1)C(=O)N2
Resp: 1.4

Req: # GI50 lookup, item COc1ccc2c(c1)[C@]1(C[C@H]1c1ccc3c(-c4ccc(N5CCN(C)CC5)nc4)n[nH]c3c1)C(=O)N2
Resp: 3.3

Req: # GI50 lookup, item COc1ccc2c(c1)[C@@]1(C[C@@H]1c1ccc3c(-c4ccc(N5CCN(C)CC5)nc4)n[nH]c3c1)C(=O)N2
Resp: 5.9
